# method_description: anticonvulsive activity, test with pentetrazol
# Type: in vivo, mice (male CD1)
# run_parameters: Mus musculus, 0.5 h; oral route, 30 minutes before pentetrazol 135 mg/kg s.c.; dose which avoids attacks in half of the animals; read-out: DE50 (the source's name)
For each record, write down the corresponding ED50.
Numbers only, in mg/kg.

- molecule: "CCCNC(=O)c1cn(COC)c2ccccc2c1=O [derivative no. 1]"
  value_unit: "mg/kg"
  numeric_value: 55

Give ED50 for each of the items listed below.
1. CCCNC(=O)c1cn(CCOCC)c2ccccc2c1=O [derivative no. 14]
2. COCn1cc(C(=O)NC2CCCC2)c(=O)c2ccccc21 [derivative no. 8]
3. COCn1cc(C(=O)NC2CC2)c(=O)c2ccccc21 [derivative no. 7]
4. CCCNC(=O)c1cn(COC)c2ccc(F)cc2c1=O [derivative no. 9]
5. CCCNC(=O)c1cn(COC)c2c(F)cccc2c1=O [derivative no. 10]

output:
1: 79; 2: 108; 3: 67; 4: 62; 5: 53
